Cited source for all entries: patent US20240238423A9

# TESTED_ON: Human BCL-XL protein (N-terminal HiBiT tagged BCL-XL in HT1080 cells) (Homo sapiens)
# Construct: expressed in transfected cells; host or cells: HT-1080 (ATCC CCL-121), stably transduced with lentivirus pLV-UBC-N-HiBiT-BCL-XL-PGK-puro and selected with puromycin
# ASSAY_SUMMARY: HiBiT based degradation assay
# Assay type: cell-based
# CONDITION_NOTES: BCL-XL degradation normalized with DMSO control; HT1080 cells expressing HiBiT-BCL-XL; 24 h
MEASURED_METRIC: Ymin (24 h)

1) Cc1c(O[C@H]2CC[C@H](CCC(=O)N3CCN(c4cccc5c(C6CCC(=O)NC6=O)nn(C)c45)CC3)CC2)cccc1-c1ccc(N2CCc3cccc(C(=O)Nc4nc5ccccc5s4)c3C2)nc1C(=O)O (some centres unmarked) [Compound 146a] = A (Ymin < 50%)
2) Cc1c(O[C@H]2CC[C@H](C[C@H](C)CN3CCN(c4ccc5c(C6CCC(=O)NC6=O)nn(C)c5c4)CC3)CC2)cccc1-c1ccc(N2CCc3cccc(C(=O)Nc4nc5ccccc5s4)c3C2)nc1C(=O)O (single isomer, unassigned) [Compound 282b] = A (Ymin < 50%)

###

# TESTED_ON: Human BCL-XL protein (N-terminal HiBiT tagged BCL-XL in HT1080 cells) (Homo sapiens, UniProt Q07817)
# Construct: expressed in transfected cells; host or cells: HT-1080 (ATCC CCL-121), stably transduced with lentivirus pLV-UBC-N-HiBiT-BCL-XL-PGK-puro and selected with puromycin
# Sequence (Q07817 whole entry): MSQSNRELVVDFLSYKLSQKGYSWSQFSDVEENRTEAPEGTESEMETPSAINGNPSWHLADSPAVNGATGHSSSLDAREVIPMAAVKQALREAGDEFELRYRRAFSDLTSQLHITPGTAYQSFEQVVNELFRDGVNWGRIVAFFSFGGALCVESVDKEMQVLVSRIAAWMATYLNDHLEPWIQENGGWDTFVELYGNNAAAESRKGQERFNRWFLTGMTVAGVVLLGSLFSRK
# ASSAY_SUMMARY: HiBiT based degradation assay
# Format: cell-based
# CONDITION_NOTES: BCL-XL degradation normalized with DMSO control; HT1080 cells expressing HiBiT-BCL-XL; 24 h
MEASURED_METRIC: Ymin (24 h)

1. Cc1c(O[C@H]2CC[C@H](CCCCN3CCN(c4ccc5c(C6CCC(=O)NC6=O)nn(C)c5c4)[C@@H](C(F)(F)F)C3)CC2)cccc1-c1ccc(N2CCc3cccc(C(=O)Nc4nc5ccccc5s4)c3C2)nc1C(=O)O (stereo partly drawn) [Compound 339a] = B (50% ≤ Ymin < 70%)
2. Cc1c(OCCC[C@@H]2CCN(CC(=O)Nc3ccc4c(C5CCC(=O)NC5=O)nn(C)c4c3)C2)cccc1-c1ccc(N2CCc3cccc(C(=O)Nc4nc5ccccc5s4)c3C2)nc1C(=O)O (stereo partly drawn) [Compound 160a] = A (Ymin < 50%)
3. Cc1c(OCCCN2CCN(CC3CCN(c4cccc5c(C6CCC(=O)NC6=O)nn(C)c45)CC3)CC2)cccc1-c1ccc(N2CCc3cccc(C(=O)Nc4nc5ccccc5s4)c3C2)nc1C(=O)O (stereo not drawn) [Compound 221] = A (Ymin < 50%)
4. Cc1c(OCCC2CCN(CC(=O)Nc3cccc4c(C5CCC(=O)NC5=O)nn(C)c34)CC2)cccc1-c1ccc(N2CCc3cccc(C(=O)Nc4nc5ccccc5s4)c3C2)nc1C(=O)O (stereo not drawn) [Compound 101] = B (50% ≤ Ymin < 70%)
5. Cc1c(Oc2ccc(CC(F)(F)CN3CCN(c4ccc5c(C6CCC(=O)NC6=O)nn(C)c5c4)CC3)cc2)cccc1-c1ccc(N2CCc3cccc(C(=O)Nc4nc5ccccc5s4)c3C2)nc1C(=O)O (stereo not drawn) [Compound 234] = B (50% ≤ Ymin < 70%)

INPUT: What measured Ymin (24 h) goes with Cc1c(O[C@H]2CC[C@H](CCCN3CCN(c4ccc5c(C6CCC(=O)NC6=O)nn(C)c5c4)C[C@H]3C(F)(F)F)CC2)cccc1-c1ccc(N2CCc3cccc(C(=O)Nc4nc5ccccc5s4)c3C2)nc1C(=O)O (stereo partly drawn) [Compound 347b] ?
OUTPUT: A (Ymin < 50%)

INPUT: What measured Ymin (24 h) goes with Cc1c(O[C@H]2CC[C@H](CCCCN3CCN(c4ccc5c(C6CCC(=O)NC6=O)nn(C)c5c4)C[C@H]3C(F)(F)F)CC2)cccc1-c1ccc(N2CCc3cccc(C(=O)Nc4nc5ccccc5s4)c3C2)nc1C(=O)O (stereo partly drawn) [Compound 346b] ?
OUTPUT: A (Ymin < 50%)

INPUT: What measured Ymin (24 h) goes with Cc1c(OCCCC2CCN(CCN3CCN(c4cccc5c(C6CCC(=O)NC6=O)nn(C)c45)CC3)CC2)cccc1-c1ccc(N2CCc3cccc(C(=O)Nc4nc5ccccc5s4)c3C2)nc1C(=O)O (stereo not drawn) [Compound 230] ?
OUTPUT: A (Ymin < 50%)

INPUT: What measured Ymin (24 h) goes with Cc1c(OCCCN2CCN(CC(=O)N3CCN(c4ccc5c(C6CCC(=O)NC6=O)nn(C)c5c4)CC3)CC2)cccc1-c1ccc(N2CCc3cccc(C(=O)Nc4nc5ccccc5s4)c3C2)nc1C(=O)O (stereo not drawn) [Compound 140] ?
OUTPUT: A (Ymin < 50%)
